- target entity: modified FV (B-domain-truncated factor V) (human, UniProt P12259 29-838+1520-2224, R737Q;R1573Q;internal_change)
- experimental protocol: SPR
measured attribute: pKd
On this scale, pKd is minus log10 of a concentration expressed in M (mol/L).

pKd lookup needed for T18.3-Bio (structured_RNA, all C and U 2'-fluoro) RNA: GGACUUGGAUAACCUCACCGCAAUGGCGGCUUGUCAGACGACUCGCUGAGGAUCCGAG , thanks. 7.94
